test: growth inhibition of WT strain, primary screen, mitochondrial fusion inhibitor project, WT and mutant strains, chemical genetic (AID 1362); details: mitochondrial fusion phenotypic screen, WT strain, growth inhibition; at 10 µM; stronger effect = higher value
Hit rate of the full screen: of about 190,000 compounds, about 4,000 (2.1%) were called active. The list comes from a sample in which actives are over-represented; it also holds close analogues and randomly drawn compounds.
// reported inhibition for each item listed
Please give a number only; it is taken to be in %.

CC1CC(C)CN(CCC(=O)Nc2ccc3c(c2)CCC3)C1 (stereo unspecified)	2.25

Now consider the entry below.
Query: Please report inhibition for the following compound: CCn1c(SCc2ccc(C)cc2)nnc1-c1nn(-c2ccccc2)ccc1=O
Reply: 4.19

* * *

experiment: growth inhibition of WT strain, primary screen, mitochondrial fusion inhibitor project, WT and mutant strains, chemical genetic (AID 1362); settings: mitochondrial fusion phenotypic screen, mutant strain inhibition; at 10 µM
The campaign covered roughly 190,000 compounds. About 4,000 (2.1%) were called active. Many of the other results were omitted from the sample, so actives are more common in it than they were.
# key: entry, value: inhibition
Respond with the bare value in %.

Consider the following illustrative entries.
CCc1cccc(C)c1NC(=S)N(CCCN1CCN(C)CC1)Cc1cccs1	8.76
Cc1ccc(COc2ccc(C(=O)NN)cc2)cc1	22.2
Cc1ccc(C(NC(=O)N2CCCC2)C(Cl)(Cl)Cl)cc1F (configuration not stated)	18.2
O=C(Nc1ccccc1Cl)c1ccc2nsnc2c1	-10.8
COc1ccc2[nH]c(C)c(CCN(Cc3cccs3)C(=S)Nc3ccccc3OC)c2c1	3.89
CC(=O)N1CCN(S(=O)(=O)c2c(F)cc(F)c(Cl)c2F)CC1	3.15

Query: Return inhibition (reported value) for this compound: Cc1ccc(NC(=S)N(CCCN2CCCC2)Cc2cccn2Cc2ccc(Cl)cc2)cc1
Reply: 31.5

Query: Find the measured inhibition of Cc1cc(C)nc(Nc2cc([N+](=O)[O-])ccc2C)n1 and report it.
Reply: 9.39

Query: Give the reported value of inhibition for this record: CC1(C)CC(=O)c2cnc3nc4ccccc4n3c2C1
Reply: -7.45

Query: Quick one: give measured inhibition for Cc1ccc(Nc2ccc(C(N)=O)cc2[N+](=O)[O-])cc1
Reply: -8.75

Query: Look up and report measured inhibition for this entry: Cc1ccc(SCCC(=O)Nc2cc(C)on2)cc1
Reply: -8.98

Query: Quickly give me recorded inhibition for O=[N+]([O-])c1ccc2[nH]c3c(c2c1)CCCC3O (configuration not stated)
Reply: 12

* * *

experiment: growth inhibition of WT strain, primary screen, mitochondrial fusion inhibitor project, WT and mutant strains, chemical genetic (AID 1362); conditions: mitochondrial fusion phenotypic screen, mutant strain inhibition; at 10 µM
Out of some 190,000 compounds screened, about 4,000 (2.1%) were called active. Many of the other results were omitted from the sample, so actives are more common in it than they were.
measured_endpoint: inhibition (%)
Field format: number, assumed %, no unit text.

The following molecules have reported results that may help.
CCCOc1ccc(N/C=C/C(=O)C(C)(C)C)cc1	-8.28
CCCOc1ccc(C(=O)C(CCC(CNCC)C(=O)c2ccc(OCCC)cc2)CNCC)cc1 (stereo not drawn)	35.9
Cc1noc(C)c1CSCC(=O)Nc1nc2ccc(Oc3ccccc3)cc2s1	34.8
COC(=O)C1C(=O)NCC1c1ccc(C)cc1 (stereo not drawn)	13.7
CSC(=S)N/N=C/c1c[nH]c2ccccc12	13.3
Cc1ccc(NC(=O)CN2CCC(C(N)=O)CC2)cc1[N+](=O)[O-]	-3.52
O=C(NCCCNc1ccc([N+](=O)[O-])cc1Cl)c1ccccc1F	-6.43
NS(=O)(=O)c1ccc(NC(=O)COC(=O)c2c3c(nc4ccccc24)/C(=C\c2ccc4c(c2)OCO4)CCC3)cc1	-3.76
CC(C)C(=O)Nc1oc(-c2ccccc2)cc1C#N	-3.13
CCCOc1ccc(C(=O)NCCc2ccccc2)cc1	-16.2

Okay, now this molecule:
Query: Given CCC(=O)c1ccc(OCC(O)CN2CCN(c3cccc(C(F)(F)F)c3)CC2)cc1 (stereo not drawn) , respond with its inhibition.
Reply: 17.1

* * *

assay: growth inhibition of WT strain, primary screen, mitochondrial fusion inhibitor project, WT and mutant strains, chemical genetic (AID 1362); conditions: mitochondrial fusion phenotypic screen, WT strain, growth inhibition; at 10 µM; stronger effect = higher value
Screen size: about 190,000 compounds; about 4,000 (2.1%) were called active. This is one part of a sample in which actives are shown more often than they occur.
measured_endpoint: inhibition (%)
Output spec: scalar in %, unitless text.

Consider the reported inhibition for these molecules:
CC(=O)NC1C(Oc2ccc(C=O)cc2)OC(COC(C)=O)C(OC(C)=O)C1OC(C)=O (stereo unspecified)	-6.93
Cc1ccc(S(=O)(=O)/N=C(/Nc2ccc3[nH]c(=O)[nH]c3c2)c2ccccc2)cc1	-20.3
CCCCCN(C(=O)NC(=O)Nc1cccc(C)c1C)S(C)(=O)=O	-2.53
O=C(Nc1cccc(S(=O)(=O)N2CCCCC2)c1)c1ccc2c(c1)OCO2	9.86
N/C(=N\OC(=O)CCCC(=O)O)c1ncc(C(F)(F)F)cc1Cl	9.89
CC1(c2ccccc2)CC(C)(C)N(C(=O)c2cc([N+](=O)[O-])cc([N+](=O)[O-])c2)c2ccccc21 (stereo unspecified)	57
Cc1[nH]c2ccccc2c1/C=C(/C#N)C(=O)NC(C)C	-14
CCn1c(SCC(=O)c2ccc3ccccc3c2)nnc1-c1cccs1	16.5

Query: Output measured inhibition for this item: O=C(CSc1nnc(-c2cccs2)n1Cc1ccccc1)N1CCc2ccccc2C1
Reply: 70.4

Query: Return reported inhibition. Input molecule: CC(C)(C)c1ccc(OC2=CS(=O)(=O)c3ccccc32)cc1
Reply: 59

* * *

test: growth inhibition of WT strain, primary screen, mitochondrial fusion inhibitor project, WT and mutant strains, chemical genetic (AID 1362); settings: mitochondrial fusion phenotypic screen, WT strain, growth inhibition; at 10 µM; stronger effect = higher value
Hit rate of the full screen: of about 190,000 compounds, about 4,000 (2.1%) were called active. The sample holds actives, similar compounds and a random draw of the others, so the mix is not that of the screen.
# inhibition listing for each entry below
Respond with the bare value in %.

Example entries and their recorded answers appear below.
Nc1ccc(Nc2ccccc2)cc1	74.9
Cc1nc(NCCN)c(C#N)c2c1COC(C)(C)C2	24.4
CC(C)N(Cc1ccccc1)C(=O)COC(=O)c1cnccn1	-8.68
COc1cccc(NC(=S)N(CCc2c(C)[nH]c3ccccc23)Cc2ccco2)c1	63.2
Cc1cc(C)cc(NC(=S)NCCc2c[nH]c3ccccc23)c1	70.2
CSc1cc(C)[nH]c(=O)n1	-8.71

Query: Provide inhibition value for the following molecule: Cc1ccc2nc(NCCCNC(=O)c3cnccn3)c(C#N)cc2c1
Reply: 90.6

Query: Output inhibition of O=c1[nH]c(CN2CCOCC2)nc2scc(-c3ccccc3)c12
Reply: 5.72

* * *

Entries and their inhibition
assay: growth inhibition of WT strain, primary screen, mitochondrial fusion inhibitor project, WT and mutant strains, chemical genetic (AID 1362); details: mitochondrial fusion phenotypic screen, mutant strain inhibition; at 10 µM
Out of some 190,000 compounds screened, about 4,000 (2.1%) were called active. This excerpt belongs to a sample that is enriched for actives.
Kindly provide the numeric value in % only, without the unit symbol.

Some molecules with known inhibition results, for comparison:
COc1ccc(N2CCN(c3ccc([N+](=O)[O-])nc3)CC2)cc1	8.11
COCCn1c(Cc2cccn2C)nnc1SCC(=O)Nc1nccs1	4.94
COc1cc(/C=N/O)cc(Br)c1OCc1cccc(Cl)c1	76.3

Query: Given CCOC(=O)c1[nH]ncc1CN1CCCC(C(=O)c2ccc(OC)cc2C)C1 (centres undefined) , respond with its inhibition.
Reply: 9.86

Query: Could you please provide reported inhibition for COC(=O)C1=C(C)N(C(C)c2ccccc2)C(=O)/C1=C\c1ccco1 (centres undefined) ? Thanks!
Reply: -4.58

Query: Specify reported inhibition for the molecule shown: CC(C)Oc1ccc(CCc2nnc(SCC(=O)O)n2-c2ccccc2)cc1
Reply: 10.7

Query: Quickly give me recorded inhibition for CN1CCN(S(=O)(=O)c2cccc(C(=O)N3CCc4ccccc43)c2)CC1
Reply: -6.02

Query: Tell me its inhibition given COc1cccc(N(CC(=O)Nc2cccc(N(C)S(C)(=O)=O)c2)S(C)(=O)=O)c1 as the entry.
Reply: 2.31

* * *

assay: growth inhibition of WT strain, primary screen, mitochondrial fusion inhibitor project, WT and mutant strains, chemical genetic (AID 1362); settings: mitochondrial fusion phenotypic screen, WT strain, growth inhibition; at 10 µM; stronger effect = higher value
The whole screen tested about 190,000 compounds, of which about 4,000 (2.1%) were called active. Shown is part of a subset that was picked to be rich in actives.
Reported values of inhibition for individual entries
Provide only the numeric value, understood in %.

COC(=O)C1=C(C)N(c2ccc(C)cc2)/C(=C/c2ccc(O)cc2)C1=O	5.84

Query: Check the records and state inhibition for Cc1ccccc1NC(=O)c1ccccc1
Reply: -1

Query: Look up inhibition of CCOC(=O)C1(C)NC(c2ccco2)C2C(=O)N(c3ccccc3)C(=O)C21 (stereo unspecified) and report it.
Reply: -2.53

Query: For the compound COc1cc(NS(=O)(=O)c2ccccc2)ccc1-n1nc(C)cc1C , give its measured inhibition value.
Reply: -33.7

Query: Supply inhibition value. Item: Cc1ccc(Nc2nnc(SCC(=O)c3cc4ccccc4o3)s2)cc1C
Reply: 0.56

Query: Respond only with inhibition recorded for CCN(CC)CCN(C(=O)c1ccc(N2C(=O)CCC2=O)cc1)c1nc2cc3c(cc2s1)OCO3
Reply: 2.8

Query: Specify inhibition for Cc1ccc(C(=O)N2CCN(S(=O)(=O)N3CCOCC3)CC2)cc1 and stop.
Reply: 8.87

Query: Specify inhibition for O=C(CC1C(=O)NCCN1Cc1ccc(-c2ccccc2)cc1)NCC1CCOCC1 (stereo unspecified) and stop.
Reply: -14.8

Query: Identify inhibition associated with the compound C=CCNC(=O)COC(=O)CNC(=O)c1cc(Cl)cc([N+](=O)[O-])c1
Reply: -6.93

Query: Check the records and state inhibition for COC(=O)C1=C(C)N(C)C(=S)NC1c1cc(OC)ccc1OC (stereo unspecified)
Reply: 4.73

Query: Supply inhibition value. Item: Cc1ccc(Nc2c(F)c(F)c(F)c(F)c2C(=O)O)c(C)c1
Reply: -0.48

Query: Tell me its inhibition given COc1ccc(F)cc1C(=O)C1CCCN(C(=O)CCc2ccccn2)C1 (stereo unspecified) as the entry.
Reply: 15.2
